# Test system: SW620 (Dukes' Type C, Grade IV invasive colorectal adenocarcinoma)
# assay_procedure: MTT cytotoxicity, SW620 cells
# setup_conditions: IS = CC50 PBMC ÷ CC50 SW620
property: Index of selectivity PBMC / SW620

1. C[N+](C)(C)CCCC=C(c1ccc(C(F)(F)F)cc1)c1ccc(C(F)(F)F)cc1
2.7
2. C[N+](C)(CI)CCCCC=C(c1ccccc1)c1ccccc1
0.5
3. C[N+](C)(C)CCCC=C(c1cccc(F)c1)c1cccc(F)c1
0.5
4. C[N+](C)(CI)CCCC=C(c1ccccc1)c1ccccc1
0.2
